Target: Recombinant human EGFR protein (Active) (ab155639) (Homo sapiens, UniProt P00533)
Sequence (P00533 25-645 limits assumed): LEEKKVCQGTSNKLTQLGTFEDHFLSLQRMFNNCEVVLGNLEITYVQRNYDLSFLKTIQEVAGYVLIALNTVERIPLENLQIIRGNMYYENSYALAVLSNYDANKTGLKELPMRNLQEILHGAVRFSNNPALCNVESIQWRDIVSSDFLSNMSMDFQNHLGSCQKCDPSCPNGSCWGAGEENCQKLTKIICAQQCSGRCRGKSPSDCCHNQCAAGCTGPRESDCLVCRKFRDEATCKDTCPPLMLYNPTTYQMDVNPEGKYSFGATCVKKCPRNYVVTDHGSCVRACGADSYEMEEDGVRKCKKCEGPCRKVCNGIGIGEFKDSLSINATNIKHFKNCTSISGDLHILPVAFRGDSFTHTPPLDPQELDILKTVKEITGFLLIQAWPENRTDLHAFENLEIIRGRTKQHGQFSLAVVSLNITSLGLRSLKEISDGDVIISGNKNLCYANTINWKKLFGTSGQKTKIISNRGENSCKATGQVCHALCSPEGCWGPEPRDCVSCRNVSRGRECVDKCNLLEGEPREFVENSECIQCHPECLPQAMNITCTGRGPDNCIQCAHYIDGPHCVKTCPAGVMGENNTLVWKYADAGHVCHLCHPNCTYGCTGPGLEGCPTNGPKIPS
Test: Microscale thermophoresis (MST) binding to EGFR
Settings: MST; range over the tested fragment concentrations; labeled EGFR 25 nM; read-out: Kd (range over the assay concentrations)
pKd: −log10 of the molar value. Ends that are not written are not given here.
measured-metric: pKd

>  <substance>
IGERCQ [38–43]

>  <assay-result>
6.15 to 6.97

$$$$
